- Tested on: HeLa
- test: Growth inhibition of human HeLa cells
- Type: functional
Please provide measured GI50 for the entries that follow.
The reply should contain only the number, in µM.

Per the reported HeLa data, `CSc1nc(N)c(N=O)c(NCCc2ccccc2)n1` has GI50 of 27

Per the reported HeLa data, `CNc1ncnc(NCCc2ccccc2)c1N=O` has GI50 of 4.5

Per the reported HeLa data, COc1cc([C@@H]2c3cc4c(cc3[C@@H](O[C@@H]3O[C@@H]5CO[C@@H](C)O[C@H]5[C@H](O)[C@H]3O)[C@H]3COC(=O)[C@H]23)OCO4)cc(OC)c1O [ETOPOSIDE] has GI50 of 3

----------
- Test system: T47D
- test: Growth inhibition of human T47D cells
- Type: functional
Please provide measured GI50 for the entries that follow.
The reply should contain only the number, in µM.

GI50 recorded for this molecule, CC(=O)O[C@H]1C(=O)[C@@]2(C)[C@H]([C@H](OC(=O)c3ccccc3)[C@]3(O)C[C@H](OC(=O)[C@H](O)[C@@H](NC(=O)c4ccccc4)c4ccccc4)C(C)=C1C3(C)C)[C@]1(OC(C)=O)CO[C@@H]1C[C@@H]2O [PACLITAXEL] , is 0.00015

GI50 recorded for this molecule, `CNc1ncnc(NCCc2ccccc2)c1N=O` , is 7

GI50 recorded for this molecule, COc1cc([C@@H]2c3cc4c(cc3[C@@H](O[C@@H]3O[C@@H]5CO[C@@H](C)O[C@H]5[C@H](O)[C@H]3O)[C@H]3COC(=O)[C@H]23)OCO4)cc(OC)c1O [ETOPOSIDE] , is 22

----------
- Tested on: Ishikawa
- test: Growth inhibition of human Ishikawa cells
- Assay type: functional
Please provide measured GI50 for the entries that follow.

GI50 recorded for this molecule, `CNc1ncnc(NCCc2ccccc2)c1N=O` , is 3.8 µM

GI50 recorded for this molecule, `Cn1c(=O)c(=O)n(O)c2c(NCCc3ccccc3)ncnc21` , is > 100 µM

GI50 recorded for this molecule, `Cn1c(=O)c(=O)n(O)c2c(NCCN3CCOCC3)ncnc21` , is > 100 µM

GI50 recorded for this molecule, `CSc1nc(N)c(N=O)c(NCCc2ccccc2)n1` , is > 100 µM

GI50 recorded for this molecule, COc1cc([C@@H]2c3cc4c(cc3[C@@H](O[C@@H]3O[C@@H]5CO[C@@H](C)O[C@H]5[C@H](O)[C@H]3O)[C@H]3COC(=O)[C@H]23)OCO4)cc(OC)c1O [ETOPOSIDE] , is 11 µM

----------
Please provide measured GI50 for the entries that follow.
- Test system: T47D
- test: Growth inhibition of human T47D cells
- Format: functional

GI50 recorded for this compound, `Cn1c(=O)c(=O)n(O)c2c(NCCN3CCOCC3)ncnc21` , is > 100 µM

GI50 recorded for this compound, `Cn1c(=O)c(=O)n(O)c2c(NCCc3ccccc3)ncnc21` , is > 100 µM

GI50 recorded for this compound, `CSc1nc(N)c(N=O)c(NCCc2ccccc2)n1` , is > 100 µM
